species on record: Rattus norvegicus; assay: Open TG-GATES - Regimen: Single; type: toxicity, organism-based, Sprague-Dawley; parameters: regimen Single, gender Male, age 6 weeks; details: in vivo, po, 100 mg/kg, 3 h, tissue Blood, route gavage, dose level High
readout_type: Mono (%)
One number for each entry, in %.

Record excerpt, results attached:
{"compound": "CN(C)CCCN1c2ccccc2CCc2ccc(Cl)cc21 [CLOMIPRAMINE]", "Mono, %": 3.4}
{"compound": "CC1=C(/C=C/C(C)=C/C=C/C(C)=C/CO)C(C)(C)CCC1 [RETINOL]", "Mono, %": 2.6}
{"compound": "CN(C)CCCN1c2ccccc2CCc2ccccc21 [IMIPRAMINE]", "Mono, %": 3.2}

Briefly, Mono measured for "CN(C)CCN(Cc1cccs1)c1ccccn1" : 2

Data origin: ChEMBL document CHEMBL3885861
